Please go through the items and note down their growth.
System: OVCAR-8 ovarian
experiment_notes: NCI-60 one-dose screen, 48 h (100 = growth as untreated, 0 = no growth, -100 = all killed)
setup_conditions: 10 µM unless noted
Method: Growth inhibition of the OVCAR-8 human tumor cell line is measured as a screen for anti-cancer activity. Cells are grown in 96 well plates and exposed to the test compound for 48 hours. Compounds are tested at a single concentration, which is 10^-5 M for most compounds. The reported endpoint is percent growth (GI% or GIPRCNT), where numbers from 0 - 100% represent growth inhibition, and numbers from -100% - 0 represent cell death. For example, a value of 40 represents 60% growth inhibition. […]
Compounds without any hit were thinned out: in the full panel of roughly 83,000, 20% have a hit.
Kindly answer with a numeric value in %, unit omitted.

Q: Tell me growth of N#Cc1c(N)nc2c(nnn2-c2cccc(Br)c2)c1N when tested on OVCAR-8 ovarian.
Result: 93.8

Q: Tell me growth of CCOC(=O)c1ccc(-c2ccc3cc(OC)ccc3c2)nc1C when tested on OVCAR-8 ovarian.
Result: 107

Q: Tell me growth of Cn1c(NCCc2ccc(O)c(O)c2)nc2c1c(=O)n(Cc1ccc(Cl)cc1)c(=O)n2C when tested on OVCAR-8 ovarian.
Result: 87.6

Q: Tell me growth of CC(=O)NCC(=O)Nc1ccc(-c2nnc3ccccn23)nc1.CC(=O)NCC(=O)Nc1ccc(-c2nnc3ccccn23)nc1.[Pt+2] when tested on OVCAR-8 ovarian.
Result: 94.3

Q: Tell me growth of CCN(CC)CCNc1ccc(C)c2sc3cc(C)ccc3c(=O)c12 when tested on OVCAR-8 ovarian.
Result: 57

Q: Tell me growth of C=C1c2c(C)nn(-c3ccc(N)cc3)c2N(C)C23CC1C1(C)c4c(C)nn(-c5ccc(N)cc5)c4N(C)C(C)(CC12)C3 (stereo not given) when tested on OVCAR-8 ovarian.
Result: 71

Q: Tell me growth of O=C1N/C(=N/O)S/C1=C/c1cn(-c2ccccc2)nc1-c1ccccc1 when tested on OVCAR-8 ovarian.
Result: 89.9

Q: Tell me growth of O=C(/C=C/C12c3ccccc3C(c3ccccc31)C1C(=O)N(c3ccccc3)C(=O)C12)c1ccccc1 (stereo not given) when tested on OVCAR-8 ovarian.
Result: 27.4

Q: Tell me growth of O=C(O)c1ccccc1C(=O)Nc1ccc(Cl)cc1 when tested on OVCAR-8 ovarian.
Result: 87.7

Q: Tell me growth of C(=C\c1nc2ccccc2[nH]1)/c1nc2ccccc2[nH]1 when tested on OVCAR-8 ovarian.
Result: 97.6

---

Tested on: UO-31 renal
experiment_notes: NCI-60 one-dose screen, 48 h (100 = growth as untreated, 0 = no growth, -100 = all killed)
setup_conditions: 10 µM unless noted
This is part of a sample that, as a whole, favours compounds with a hit. Of some 83,000 tested, about 20% had one in any assay.
Recorded growth determines the label; the label ranges are low class: < 50%; middle class: ≥ 50% and < 80%; high class: ≥ 80%

Q: Lab note: which band did CCOc1ccc(S(=O)(=O)c2ccc(C)cc2)c2c1no[n+]2[O-] land in?
Result: high class

Q: Lab note: which band did Cc1nc(Nc2ccc(NC(=S)Nc3ccccc3)cc2)nc2nc(Nc3cccc(Cl)c3)[nH]c(=O)c12 land in?
Result: high class

Q: Lab note: which band did Cc1cnc(Nc2ccc(OCCN3CCCC3)cc2)nc1NCc1ccco1 land in?
Result: low class

Q: Lab note: which band did O=C1CSC(c2ccccc2O)N1c1nnc(Cn2cnnc2)o1 (stereo unspecified) land in?
Result: low class

Q: Lab note: which band did c1ccc(-c2oc3ccccc3c2-c2ccccc2)cc1 land in?
Result: high class

Q: Lab note: which band did N#Cc1c(-c2ccccc2)nc(SCC2CO2)nc1N1CCOCC1 (stereo unspecified) land in?
Result: low class

Q: Lab note: which band did CC(=O)Nc1ccc(C(=O)/C=C/c2ccccc2)cc1 land in?
Result: middle class

Q: Lab note: which band did Oc1ccccc1-c1nc2ccccn2c1NCCN1CCOCC1 land in?
Result: high class

Q: Lab note: which band did C=C(C=O)C1CCC2(C(=O)O)CCC3(C)C(CCC4C5(C)CCC(O)C(C)(C)C5CCC43C)C12 (stereo unspecified) land in?
Result: low class

Q: Lab note: which band did O=C1CC(c2ccc3c(c2)OCO3)Nc2cc3c(cc21)OCO3 (stereo unspecified) land in?
Result: middle class

Q: Lab note: which band did CCc1cc(Cc2cc(CC)cc(C(C)(C)C)c2O)c(O)c(C(C)(C)C)c1 land in?
Result: low class

---

System: A549/ATCC NSCLC
experiment_notes: NCI-60 one-dose screen, 48 h
setup_conditions: 10 µM unless noted
About 83,000 compounds went through this panel and 20% of them were active in at least one assay; those are over-represented in the sample as a whole. Activity calls are given as the source filed them. How the source made its calls: active means growth percent below 10; inactive means the rest.
Give your call using only these classes: yes = active, no = inactive

Q: Recorded test outcome, item N#C/C(=C\c1ccc(Br)cc1)n1nnc2ccccc21
Result: no

Q: Recorded test outcome, item C(=C\c1nc2ccccc2[nH]1)/c1nc2ccccc2[nH]1
Result: no

Q: Recorded test outcome, item CCC(=O)OC1=C(C)SC2=NC(c3ccc(Cl)c(Cl)c3)=CC(c3cc(OC)c(OC)c(OC)c3)N21 (stereo unspecified)
Result: no

Q: Recorded test outcome, item COc1ccc(-c2c(N)n[nH]c2-c2ccccc2O)cc1OC
Result: no

Q: Recorded test outcome, item O=C1Nc2ccccc2/C1=N/N=C/c1ccsc1
Result: no

Q: Recorded test outcome, item CCCn1nc(-c2ccccc2)c2c(-c3ccccc3)onc2c1=O
Result: no

Q: Recorded test outcome, item O=C(NCCOCCOCCOCCNC(=O)c1cc2c(o1)C(=O)c1ccccc1C2=O)NC12CC3CC(CC(C3)C1)C2
Result: yes

Q: Recorded test outcome, item O=[N+]([O-])c1ccc2[nH]cc(-c3c4ccsc4cc4[nH]c5ccc([N+](=O)[O-])cc5c34)c2c1
Result: yes

Q: Recorded test outcome, item CCCCCOC(=O)c1cccc(NC(=O)CN(CC)CC)c1
Result: no

Q: Recorded test outcome, item Cc1nc(Nc2ccc(NC(=S)Nc3ccccc3)cc2)nc2nc(Nc3cccc(Cl)c3)[nH]c(=O)c12
Result: no

Q: Recorded test outcome, item OC(CBr)c1ccnc2ccccc12 (stereo unspecified)
Result: no

---

Test system: T-47D breast
experiment_notes: NCI-60 one-dose screen, 48 h (100 = growth as untreated, 0 = no growth, -100 = all killed)
setup_conditions: 10 µM unless noted
Compounds without any hit were thinned out: in the full panel of roughly 83,000, 20% have a hit.
measure: growth (%)
Kindly answer with a numeric value in %, unit omitted.

Q: Recall and state the measured growth for Cl.Fc1c[c-]c(-c2ccccn2)c(F)c1.[Pt].c1ccc([PH+](c2ccccc2)c2ccccc2[PH+](c2ccccc2)c2ccccc2)cc1 .
Result: -80.2

Q: Recall and state the measured growth for CC[C@]1(O)C[C@H]2CN(CCc3c([nH]c4ccccc34)[C@@](C(=O)OC)(c3cc4c(cc3OC)N(C=O)[C@H]3[C@@](O)(C(=O)OC)[C@H](OC(C)=O)[C@]5(CC)C=CCN6CC[C@]43[C@@H]65)C2)C1 .
Result: 54.8

Q: Recall and state the measured growth for CCC(=O)OC1=C(C)SC2=NC(c3ccc(Cl)c(Cl)c3)=CC(c3cc(OC)c(OC)c(OC)c3)N21 (stereo not drawn) .
Result: 97.5

Q: Recall and state the measured growth for O=C(CC12CC3CC(CC(C3)C1)C2)NCCOCCOCCOCCNC(=O)c1cc2c(o1)C(=O)c1ccccc1C2=O .
Result: 1.06

Q: Recall and state the measured growth for O=c1ccn(C2OC(F)(CO)C(O)C2F)c(=O)[nH]1 (stereo not drawn) .
Result: 81.2

Q: Recall and state the measured growth for CC(=O)Nc1ccc(C(=O)/C=C/c2ccccc2)cc1 .
Result: 74.9

Q: Recall and state the measured growth for CN(CCC(=O)/C(=C\c1ccccc1)c1ccc(Cl)cc1)Cc1ccccc1 .
Result: 15.3

Q: Recall and state the measured growth for COc1cc2nc(Nc3ccc(F)cc3)nc(N)c2cc1OC .
Result: 83.2

---

Test system: PC-3 prostate
experiment_notes: NCI-60 one-dose screen, 48 h
setup_conditions: 10 µM unless noted
About 83,000 compounds went through this panel and 20% of them were active in at least one assay; those are over-represented in the sample as a whole. Calls of active or inactive are those of the source. The calls were made as follows: active = growth percent below 10; inactive = the rest.
Give your call using only these classes: True (active), False (inactive)

Q: Recorded test outcome, item CCCn1nc(-c2ccccc2)c2c(-c3ccccc3)onc2c1=O
Result: False

Q: Recorded test outcome, item COc1cc(-c2ccc(N=Nc3c(O)c(C(=O)Nc4ccccc4OC)cc4ccccc34)c(OC)c2)ccc1N=Nc1c(O)c(C(=O)Nc2ccccc2OC)cc2ccccc12
Result: False

Q: Recorded test outcome, item COC(=O)[C@]12CC[C@@H](C)[C@H](C)[C@@H]1C1=CC[C@@H]3[C@@]4(C)C(C=O)=C[C@@](C)(CO)C4=CC[C@@]3(C)[C@]1(C)CC2
Result: False

Q: Recorded test outcome, item CCN(CC)CCCNC(=O)c1ccc(N)cc1O
Result: False

Q: Recorded test outcome, item N=C(N)c1ccc(-c2ccc(-c3ccc(Cl)cc3Cl)o2)cc1
Result: False

Q: Recorded test outcome, item Cc1nn(-c2ccccc2)c2c1C(c1ccc([N+](=O)[O-])cc1)C(C#N)=C(N)O2 (stereo not given)
Result: False

Q: Recorded test outcome, item Nc1c(-c2nc3ccccc3c(=O)[nH]2)nnn1-c1ccc(Cl)cc1
Result: False

Q: Recorded test outcome, item O[C@H]1CO[C@H]2[C@@H]1OC[C@@H]2Oc1ccc(Nc2nc(Nc3ccc(F)c(Cl)c3)ncc2F)cc1Cl
Result: False

Q: Recorded test outcome, item COc1ccc(/C=C(\C#N)n2nnc3ccccc32)cc1
Result: False

Q: Recorded test outcome, item COc1ccc(-c2nnc(-c3ccc4c(c3)nc(-c3ccccc3)n4C3CCCCC3)o2)cc1
Result: False

Q: Recorded test outcome, item COc1ccc(OC)c(Nc2nc3nonc3nc2Nc2cc(OC)ccc2OC)c1
Result: False

Q: Recorded test outcome, item CCOc1cccnc1/C=N/NC(N)=S
Result: False

Q: Recorded test outcome, item Cc1c2c(cn1Cc1ccccc1)CCc1cn[nH]c1-2
Result: False

Q: Recorded test outcome, item O=C(CCl)N1c2cccc3cccc(c23)N(C(=O)CCl)C1c1cn(-c2ccccc2)nc1-c1cccc([N+](=O)[O-])c1
Result: False

Q: Recorded test outcome, item C=C1C(=O)O[C@H]2[C@H]1CC/C(COC(=O)NCc1ccc(Cn3c(=O)sn(CCCCl)c3=O)cc1)=C\CC[C@@]1(C)O[C@@H]21
Result: False

Q: Recorded test outcome, item CC(C)c1ccc(NC(=O)Cc2ccc(Nc3ncnc4cc(-c5cnn(CCN(C)C)c5)ccc34)cc2)cc1
Result: True

Q: Recorded test outcome, item Cc1[nH]c(-c2nc3ccccc3[nH]2)c(C)c1C(=O)N1CCc2sccc2C1
Result: False

Q: Recorded test outcome, item O=S(=O)(Cc1ccccc1)c1nc2ccccc2s1
Result: False

Q: Recorded test outcome, item Cc1cc(=O)[nH]c(N/N=C/c2cc(Br)ccc2O)n1
Result: False

Q: Recorded test outcome, item Cc1cc(=O)c2cc3nc(-c4cccnc4)oc3c(Br)c2o1
Result: False

Q: Recorded test outcome, item C=C(C)[C@@H]1CC[C@]2(CN)CC[C@]3(C)[C@H](CC[C@@H]4[C@@]5(C)CCC(N)[C@@](C)(CO)[C@@H]5CC[C@]43C)[C@@H]12 (stereo not given in full)
Result: True

Q: Recorded test outcome, item CN(C)c1ccc2cc(-c3ccccc3F)c(N)nc2c1
Result: False

Q: Recorded test outcome, item COc1ccc(-c2nc3ccccn3c2/C=C/C(=O)c2cc(OC)c(OC)c(OC)c2)cc1
Result: False

Q: Recorded test outcome, item NS(=O)(=O)c1cn(-c2ncnc3nc[nH]c23)ccc1=O
Result: False

Q: Recorded test outcome, item Cc1nc(Nc2ccc(NC(=S)Nc3ccccc3)cc2)nc2nc(Nc3cccc(Cl)c3)[nH]c(=O)c12
Result: False

Q: Recorded test outcome, item CN(C)CCn1cc(-c2ccc3c(Nc4ccc(CC(=O)Nc5cccc(F)c5)cc4)ncnc3c2)cn1
Result: True

Q: Recorded test outcome, item C[C@@H]1C(=O)N(C[C@@H](Cc2ccccc2)NC(=O)OCc2ccccc2)[C@]1(Cc1ccccc1)C(=O)OCc1ccccc1
Result: False

Q: Recorded test outcome, item COc1ccc(Cn2cnc3cc(C(=O)Nc4cccc5ccccc45)ccc32)c(OC)c1
Result: False

Q: Recorded test outcome, item N=C(N)c1ccc(-c2ccc(/C=C/c3ccccc3)s2)cc1
Result: False

Q: Recorded test outcome, item CCN(CC)CCOC(=O)Nc1ccccc1Cl
Result: False

Q: Recorded test outcome, item CS(=O)(=O)c1ccc(-c2[nH]c3ccc(F)cc3c2/C=N/NC(N)=S)cc1
Result: False

Q: Recorded test outcome, item NS(=O)(=O)Oc1ccc(NC(=O)C23CC4CC(CC(C4)C2)C3)cc1Cl
Result: False

Q: Recorded test outcome, item O=C1c2ccccc2C2(c3ccc(O)cc3)c3ccccc3Oc3cccc1c32 (stereo not given)
Result: False

Q: Recorded test outcome, item CCNCCNc1cc(-c2ccc(C(=O)OC)cc2)c(C#N)c2nc3ccccc3n12
Result: False

Q: Recorded test outcome, item Cc1ccc(S(=O)(=O)Nc2sccc2-c2nc(-c3ccccc3)no2)cc1
Result: False

Q: Recorded test outcome, item CN(C)c1ccc(C#Cc2c(F)cccc2Cl)cc1
Result: False

Q: Recorded test outcome, item N[C@H]1CCC[C@@H]1NCCCCN1C(=O)c2cccc3cccc(c23)C1=O
Result: False

Q: Recorded test outcome, item Cc1ccc(NC(=O)C(Cl)Cl)cc1
Result: False

Q: Recorded test outcome, item CCN(CC)c1ccc(Nc2ccc(CC(=O)c3ccccc3)cc2)cc1
Result: False

Q: Recorded test outcome, item COC(=O)Nc1nc2ccc(C(=O)C3CC3)cc2[nH]1
Result: False
